- Test System: HER2 (Homo sapiens, UniProt P04626)
- Construct: amount of phosphorylation of HER2 tyrosine of the cells; endogenous in cells; host or cells: MCF-7 human breast cancer cell line
- Sequence (P04626 23-1255): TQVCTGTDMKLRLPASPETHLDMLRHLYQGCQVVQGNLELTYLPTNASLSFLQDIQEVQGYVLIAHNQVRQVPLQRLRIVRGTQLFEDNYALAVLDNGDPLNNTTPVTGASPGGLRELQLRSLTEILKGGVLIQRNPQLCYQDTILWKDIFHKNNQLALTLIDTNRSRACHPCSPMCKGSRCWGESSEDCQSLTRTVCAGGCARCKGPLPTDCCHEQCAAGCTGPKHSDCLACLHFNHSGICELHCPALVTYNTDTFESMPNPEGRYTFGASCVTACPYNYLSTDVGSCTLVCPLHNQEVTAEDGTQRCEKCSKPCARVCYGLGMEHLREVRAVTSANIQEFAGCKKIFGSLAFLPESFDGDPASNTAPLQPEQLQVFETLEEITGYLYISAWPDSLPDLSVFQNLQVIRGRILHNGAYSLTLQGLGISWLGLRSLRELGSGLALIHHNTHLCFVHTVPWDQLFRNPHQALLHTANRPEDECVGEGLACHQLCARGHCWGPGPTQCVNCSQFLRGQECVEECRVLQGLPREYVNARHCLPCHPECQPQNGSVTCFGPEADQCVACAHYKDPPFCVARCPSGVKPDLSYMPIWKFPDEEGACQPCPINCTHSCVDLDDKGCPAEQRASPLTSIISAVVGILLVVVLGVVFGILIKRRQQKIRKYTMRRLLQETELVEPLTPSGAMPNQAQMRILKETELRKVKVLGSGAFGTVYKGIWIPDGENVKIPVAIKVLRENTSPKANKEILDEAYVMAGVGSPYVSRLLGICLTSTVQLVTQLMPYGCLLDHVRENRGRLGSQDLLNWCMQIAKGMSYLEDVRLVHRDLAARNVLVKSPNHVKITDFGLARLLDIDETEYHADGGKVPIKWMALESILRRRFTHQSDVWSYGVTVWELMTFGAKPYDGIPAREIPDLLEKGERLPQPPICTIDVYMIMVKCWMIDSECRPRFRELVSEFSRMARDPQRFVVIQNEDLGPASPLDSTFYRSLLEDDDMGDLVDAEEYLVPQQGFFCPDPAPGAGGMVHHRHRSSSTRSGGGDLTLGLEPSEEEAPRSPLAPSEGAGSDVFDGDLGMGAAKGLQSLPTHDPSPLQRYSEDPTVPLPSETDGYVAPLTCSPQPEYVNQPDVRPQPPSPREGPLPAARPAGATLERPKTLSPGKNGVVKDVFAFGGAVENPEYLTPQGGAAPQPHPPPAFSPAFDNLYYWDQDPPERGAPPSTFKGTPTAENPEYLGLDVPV
- Assay Procedure: Inhibition of phosphorylation of receptor tyrosine (HER2) in human breast cancer cells MCF-7
- Assay type: cell-based
- Recorded Conditions: MCF-7 cells, test compound 2 hours, then heregulin 0.8 μg/mL for 5 minutes
Reported IC50 values for the following compounds.
I'd appreciate it if you wrote the number followed by its unit.

Would you please look over these solved cases?
Fc1ccc(/C=C/c2nc(COc3cccc(CCCn4ccnn4)c3)co2)cc1 ... 0.18 µM
OCC(O)Cc1nccn1CCCCc1ccc(OCc2coc(/C=C/c3ccc(F)cc3F)n2)cc1 (centres unmarked) [Reference Example B26] ... 0.92 µM
Cc1cccc(/C=C/c2nc(COc3ccc(CCCCn4ccnc4CC(O)CO)cc3)co2)c1 (centres unmarked) ... 1.9 µM

Which IC50 value belongs to OCCc1nccn1CCCc1ccc(OCc2coc(/C=C/c3ccc(F)cc3F)n2)cc1 ?
1.5 µM

What about this compound? Cc1cccc(/C=C/c2nc(COc3ccc(CCCCn4ccnc4CCO)cc3)co2)c1
1.1 µM

What about this compound? FC(F)(F)c1ccc(/C=C/c2nc(COc3cccc(CCCn4ccnn4)c3)co2)cc1 [Reference Example B6]
1.2 µM

What about this compound? Fc1ccc(/C=C/c2nc(COc3ccc(CCCCn4ccnn4)cc3)co2)cc1 [Reference Example B2]
1.9 µM

What about this compound? FC(F)(F)c1ccc(/C=C/c2nc(COc3ccc(CCCCn4ccnn4)cc3)co2)cc1 [Reference Example B4]
0.1 µM
